Assignment: determine reported pIC50 for the given molecules.
molecular target: UniProt Q06187; assay: Btk in vitro inhibitory activity (one of Method A TR-FRET, Method B electrophoretic mobility shift, Method C radiometric filter binding); assay type: biochemical; conditions: determined using one of the methods of Example 355a, 355b and 355c; read-out: BTK IC50
Sequence (Q06187 whole entry): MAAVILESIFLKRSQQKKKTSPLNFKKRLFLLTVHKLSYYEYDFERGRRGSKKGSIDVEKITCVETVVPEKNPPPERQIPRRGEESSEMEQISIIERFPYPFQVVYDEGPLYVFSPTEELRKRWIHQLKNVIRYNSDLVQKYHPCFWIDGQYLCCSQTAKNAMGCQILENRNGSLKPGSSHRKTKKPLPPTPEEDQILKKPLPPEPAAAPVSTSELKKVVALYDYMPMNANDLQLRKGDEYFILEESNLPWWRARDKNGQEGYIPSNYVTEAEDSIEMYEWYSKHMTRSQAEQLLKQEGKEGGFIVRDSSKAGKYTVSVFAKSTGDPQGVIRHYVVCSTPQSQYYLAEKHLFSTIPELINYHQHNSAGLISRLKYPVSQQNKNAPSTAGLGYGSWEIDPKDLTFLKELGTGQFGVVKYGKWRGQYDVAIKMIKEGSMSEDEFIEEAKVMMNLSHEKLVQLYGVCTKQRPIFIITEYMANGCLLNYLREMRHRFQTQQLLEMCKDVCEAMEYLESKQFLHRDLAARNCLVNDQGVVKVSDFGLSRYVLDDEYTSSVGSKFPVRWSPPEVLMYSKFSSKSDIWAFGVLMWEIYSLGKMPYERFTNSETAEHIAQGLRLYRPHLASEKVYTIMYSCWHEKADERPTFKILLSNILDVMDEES
pIC50: −log10 of the molar value.

Request: What pIC50 appears in the records for this molecule with UniProt Q06187? CN(C)C(=O)N[C@@H]1CCCN(c2cnc(C(N)=O)c(Nc3ccc(C(C)(C)C(N)=O)cc3)n2)C1
Response: 7.00 to 8.00

Request: What pIC50 appears in the records for this molecule with UniProt Q06187? COc1ccc(C(=O)N[C@@H]2CCCN(c3cnc(C(N)=O)c(Nc4ccc(S(C)(=O)=O)cc4)n3)C2)cc1
Response: > 8.00

Request: What pIC50 appears in the records for this molecule with UniProt Q06187? CCOCCOc1ccc(Nc2nc(N3CCC[C@@H](NC(=O)c4ccc(OC)cc4)C3)cnc2C(N)=O)cc1
Response: 7.00 to 8.00

Request: What pIC50 appears in the records for this molecule with UniProt Q06187? COc1ccc(C(=O)N[C@@H]2CCCN(c3cnc(C(N)=O)c(Nc4ccc5ncccc5c4)n3)C2)cc1
Response: 7.00 to 8.00

Request: What pIC50 appears in the records for this molecule with UniProt Q06187? NC(=O)c1nnc(N2CCC[C@@H](Oc3nccc4cc(C5CC5)cc(F)c34)C2)nc1Nc1ccc(C(=O)N2CCOCC2)cc1
Response: 6.00 to 7.00

Request: What pIC50 appears in the records for this molecule with UniProt Q06187? NC(=O)c1nnc(N2CCC[C@@H](NC(=O)C3CCOCC3)C2)nc1Nc1ccc(C(=O)N2CCOCC2)cc1
Response: 7.00 to 8.00

Request: What pIC50 appears in the records for this molecule with UniProt Q06187? CN1CCN([C@@H]2CCCN(c3cnc(C(N)=O)c(Nc4ccc(C5(C)CCN(C=O)CC5)cc4)n3)C2)C1=O
Response: > 8.00

Request: What pIC50 appears in the records for this molecule with UniProt Q06187? CN(C)C(=O)N[C@@H]1CCCN(c2cnc(C(N)=O)c(Nc3ccc(C(=O)Nc4ccccn4)cc3)n2)C1
Response: 7.00 to 8.00

Request: What pIC50 appears in the records for this molecule with UniProt Q06187? CC(C)N1CCC(c2ccc(Nc3nc(N4CCC[C@@H](NC(=O)N(C)C)C4)cnc3C(N)=O)cc2)CC1
Response: > 8.00

Request: What pIC50 appears in the records for this molecule with UniProt Q06187? NC(=O)c1ncc(N2CCC[C@@H](NC(=O)c3ccc(F)cc3)C2)nc1Nc1ccc(C2CCN(C3CCCC3)CC2)cc1
Response: > 8.00

Request: What pIC50 appears in the records for this molecule with UniProt Q06187? CN1CCC(c2ccc(Nc3nc(N4CCC[C@@H](NC(=O)N(C)C)C4)cnc3C(N)=O)cc2)CC1
Response: > 8.00

Request: What pIC50 appears in the records for this molecule with UniProt Q06187? C[C@@H]1[C@H](NC(=O)N(C)C)CCCN1c1cnc(C(N)=O)c(Nc2ccc(C3(C#N)CCN(C4CCCC4)CC3)cc2)n1
Response: > 8.00

Request: What pIC50 appears in the records for this molecule with UniProt Q06187? COc1ccc(C(=O)N[C@@H]2CCCN(c3cnc(C(N)=O)c(Nc4ccc(-n5ccccc5=O)cc4)n3)C2)cc1
Response: 7.00 to 8.00

Request: What pIC50 appears in the records for this molecule with UniProt Q06187? CN(C)C(=O)N[C@@H]1CCCN(c2cnc(C(N)=O)c(Nc3ccc(C4CCN(C5CCCCC5)CC4)cc3)n2)C1
Response: > 8.00
